B1: library; numbered along this chain (parent)
chain: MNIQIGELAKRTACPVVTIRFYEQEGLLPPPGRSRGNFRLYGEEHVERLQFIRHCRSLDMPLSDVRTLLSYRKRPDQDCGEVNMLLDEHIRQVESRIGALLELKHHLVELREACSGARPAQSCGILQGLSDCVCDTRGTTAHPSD

# Variants of: B1
# ASSAY METHOD TEXT: sfGFP reporter fluorescence (15 h) (µM FITC); higher = higher leak
# CONDITIONS: library round: Round 0; ligand: none
Outcome label depends on sfGFP reporter fluorescence relative to 0.06: at/above gives Met, below gives Not met.

VARIANT	CLASS LABEL
D64K G128M	Met
L27Q	Met
D64R	Met

Input: Identify whether the reported sfGFP reporter fluorescence of the following variant is 0.06 or greater: L126V
Output: Not met

Input: Textbook exercise: given the entry D131R , state whether its sfGFP reporter fluorescence is greater than or equal to 0.06.
Output: Met

Input: Item R20F with sfGFP reporter fluorescence of 0.06 or above?
Output: Not met

Input: Is the recorded value of sfGFP reporter fluorescence equal to or greater than 0.06 for this variant? P30R
Output: Met
